Origin of values: ChEMBL document CHEMBL2086341

test system: HT-29; assay: Antiproliferative activity against human HT-29 cells after 72 hrs by MTT assay; format: functional, cell-based; settings: Homo sapiens, HT-29, 72 h; read-out: IC50
READOUT_TYPE: IC50 (µM)

> print(dat)
                                   molecule  readout.type  observed.result
1  COc1ccc(C(=O)n2c(C)c(CC(=O)NCCN(C)C)c3cc(OC)ccc32)cc1          IC50             17.8
2  COc1ccc2c(c1)c(CC(=O)NCCN1CCOCC1)c(C)n2C(=O)c1cc(OC)c(OC)c(OC)c1          IC50              611
3  CSc1ccc(/C=C2/C(C)=C(CC(=O)NCCN(C)C)c3cc(F)ccc32)cc1          IC50             11.3

(A) COc1ccc(NC(=O)CC2=C(C)/C(=C/c3ccc([S+](C)[O-])cc3)c3ccc(F)cc32)cc1 (stereo not given)
(B) COc1ccc2c(c1)c(CC(=O)NCCN1CCCCC1)c(C)n2C(=O)c1ccc(Cl)cc1
Quick one: lower IC50, A or B ? Refer to your chosen item by its label in the answer. B
(B: 277 µM, A: 2540 µM)
